experiment: TEAD-YAP interaction inhibition, primary screen, TEAD-YAP interaction inhibitor project, luminescence, HEK-TIYL cells (AID 1259422); details: TEAD-Gal4/YAP UAS-luciferase luminescence, at 9.12 µM;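 further: 0% = median of test compound wells and 100% = reference inhibitor wells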
The whole screen tested about 640,000 compounds, of which about 9,300 (1.5%) were called active. No stated cut-off is given here; in the data, active means inhibition above about 32%; inactive means the rest. This is one part of a sample in which actives are shown more often than they occur.
Hello, when you answer, please use one of the following outcomes: active, inactive

C=CCc1ccc(OCCN2CC(C)OC(C)C2)c(OC)c1 (stereo not given); inactive
CC(C)(C)c1ccc(NC(=O)CSc2cccc[n+]2[O-])cc1; inactive

Exercise: Per the assay record, what outcome was assigned to "CCNS(=O)(=O)c1ccc(NC(=O)CCOCC)cc1" ?
Solution: inactive

Exercise: Quick one: CC(C)C(=O)NCC1CCC2(CCN(Cc3ccc4ccccc4c3)CC2)O1 (stereo not given)
Solution: inactive

Exercise: Also check "O=C(c1ccc([N+](=O)[O-])cc1)N1CCN(c2cccc(Cl)c2)CC1"
Solution: inactive

Exercise: Now consider "COc1ccc(NC(=S)NNS(=O)(=O)c2ccc(NC(C)=O)cc2)cc1" and answer again.
Solution: active

* * *

test: TEAD-YAP interaction inhibition, primary screen, TEAD-YAP interaction inhibitor project, luminescence, HEK-TIYL cells (AID 1259422); details: TEAD-Gal4/YAP UAS-luciferase luminescence, at 9.12 µM, hits give high values;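 further: 0% = median of test compound wells and 100% = reference inhibitor wells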
In all, about 640,000 compounds went through this assay and about 9,300 (1.5%) were called active. This is one part of a sample in which actives are shown more often than they occur.
property_name: inhibition (%)
Numbers only here, please. The scale is %.

// known answers, use as guide
CONC(=O)c1ccc(C(=O)c2cc(OC)ccc2OC)cc1; 35.8
COc1cc2c(cc1OC)C1CN3CCc4cc(OC)c(OC)cc4C3CN1CC2 (stereo not drawn); 5.47
COC(=O)c1ccc(C(=O)NCC2CCC3(CCN(Cc4ccccn4)CC3)O2)cc1 (stereo not drawn); 9.59
CCc1nc2sc3c(N4CCCC4)ncnc3c2c2c1COC(C)(C)C2; -9.9
COc1ccccc1N=c1scc(-c2ccccc2)n1CCO; 1.29
Cc1cc(Nc2ccc(N3CCOCC3)cc2)nc(NCc2ccc3c(c2)OCO3)n1; 38.4
O=C(OCCN1C(=O)c2cccc3c(N4CCCCC4)ccc(c23)C1=O)c1cc(Cl)cc(Cl)c1; -2.51
COc1cccc(C(=O)NC2(C(F)(F)F)NC(=O)N(c3ccccc3)C2=O)c1 (stereo not drawn); 8.83
COc1cc(NS(=O)(=O)c2ccc(N/C=C\C(=O)c3cccs3)cc2)nc(OC)n1; -5.11
CNC(=O)C(=O)Nc1cc(OC)ccc1OC; 10.2

Exercise: Using the record for "Cc1ccc(NC(=O)/N=C/c2sc(=O)[nH]c2O)cc1" , report its inhibition.
Solution: -3.99

Exercise: Another compound: "COCCCNC(=O)/C(C#N)=C/c1cc(C)n(-c2cccc3ccccc23)c1C"
Solution: 47.1

Exercise: Query CCCCOc1ccc(-c2[nH]nc3c2C2(C(=O)Nc4ccc(C)c(Br)c42)C(C#N)=C(N)O3)cc1 (stereo not drawn) next
Solution: 3.07

Exercise: What about CCOC(=O)c1c(NC(=O)C(C)Sc2nnc(CNC(=O)c3ccc(Cl)cc3Cl)n2C)sc2c1CCCC2 (stereo not drawn) ?
Solution: 5.37

Exercise: Could you do the same for Cc1ccc(NC2=C(Cl)C(=O)OC2OC(=O)c2ccccc2Br)cc1 (stereo not drawn) , please?
Solution: 9.63

Exercise: Then this compound: "Cc1ccc(-c2noc(CCC(=O)N(C)c3ccccc3Cl)n2)cc1"
Solution: 13.7
